Measured EC50 accompanies every entry in the list below.
Biological target: Short transient receptor potential channel 4 (Mus musculus, UniProt Q9QUQ5)
Sequence (Q9QUQ5 whole entry): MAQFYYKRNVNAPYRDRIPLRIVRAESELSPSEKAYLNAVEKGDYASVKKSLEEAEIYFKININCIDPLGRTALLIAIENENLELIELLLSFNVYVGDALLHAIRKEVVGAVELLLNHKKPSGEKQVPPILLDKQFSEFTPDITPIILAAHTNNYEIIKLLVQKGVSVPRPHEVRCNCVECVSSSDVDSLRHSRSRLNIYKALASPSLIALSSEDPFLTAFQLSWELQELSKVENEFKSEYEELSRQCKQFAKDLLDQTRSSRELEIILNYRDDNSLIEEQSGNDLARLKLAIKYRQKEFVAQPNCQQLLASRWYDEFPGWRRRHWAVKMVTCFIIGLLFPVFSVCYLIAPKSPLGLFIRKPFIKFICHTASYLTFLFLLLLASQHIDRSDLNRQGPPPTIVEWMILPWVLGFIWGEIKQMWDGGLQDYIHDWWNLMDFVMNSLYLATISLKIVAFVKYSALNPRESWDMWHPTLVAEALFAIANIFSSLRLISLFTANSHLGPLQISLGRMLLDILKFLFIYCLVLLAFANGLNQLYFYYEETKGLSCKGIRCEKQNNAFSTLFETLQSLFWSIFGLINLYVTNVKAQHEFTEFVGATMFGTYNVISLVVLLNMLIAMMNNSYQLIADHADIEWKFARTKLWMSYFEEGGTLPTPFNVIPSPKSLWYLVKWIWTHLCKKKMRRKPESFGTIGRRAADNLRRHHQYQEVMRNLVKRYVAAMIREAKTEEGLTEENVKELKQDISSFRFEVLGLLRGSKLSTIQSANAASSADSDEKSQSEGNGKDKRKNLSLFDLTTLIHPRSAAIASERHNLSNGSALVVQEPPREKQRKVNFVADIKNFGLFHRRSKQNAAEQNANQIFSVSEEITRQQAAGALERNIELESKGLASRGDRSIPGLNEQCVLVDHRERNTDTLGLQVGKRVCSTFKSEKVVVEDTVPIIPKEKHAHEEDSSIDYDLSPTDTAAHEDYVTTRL
Experiment: calcium entry via TRPC4 opening agents – cell-based, HEK293 TRPC4/mu-opioid, Fluo-4 calcium, dose response (AID 434937)
Assay type: functional
Activity calls are given as the source filed them. No rule for the calls is given here.

A selection of reference data follows.
{"compound": "COc1ccc(C(CNC(=O)c2cccc3cccnc23)N(C)C)cc1 (centres undefined)", "EC50": "1.19 µM (active)"}
{"compound": "CCC(=O)OC1(c2cccc(C)c2)CC(C)N(C)CC1C (centres undefined)", "EC50": "0.335 µM (active)"}
{"compound": "COc1cc(OC)c(OC)cc1CCC(C)NCCC(c1ccccc1)c1ccccc1 (centres undefined)", "EC50": "6.68 µM (active)"}

Moving on to another compound below.
The reported EC50 of the compound `CCN1CCN(c2ncnc3sc(C)c(-c4ccccc4)c23)CC1` was 5.96 µM (active)
